Kindly state Cyno apical domain:HSA for each of the entries shown.
target: T1, apical domain of cynomolgus CD71 (cynomolgus, UniProt A0A2K5X958 189-383); assay: primary ELISA, signal ratio to HSA
T1 construct: domain: apical domain; also called Cyno apical domain
T1 sequence (A0A2K5X958 entry or part of it): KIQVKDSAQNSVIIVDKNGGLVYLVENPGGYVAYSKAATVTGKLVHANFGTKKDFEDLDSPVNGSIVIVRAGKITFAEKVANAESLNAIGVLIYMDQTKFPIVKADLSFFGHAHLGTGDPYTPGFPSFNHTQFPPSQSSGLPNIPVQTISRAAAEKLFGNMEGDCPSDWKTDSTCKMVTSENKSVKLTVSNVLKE
Reply briefly: the number, and no unit.

Which Cyno apical domain:HSA is listed for CD71-binding FN3 domain of SEQ ID NO: 164 (designed binder) MSLPAPKNLVVSRVTEDSARLSWTAPDAAFDSFFIGYLEPQPPGEAIHLYVPGSERSYDLTGLKPGTEYWVQIGGVKGGNWSAPLSAIFTT ?
195

Can you share its Cyno apical domain:HSA? I mean this binder: CD71-binding FN3 domain of SEQ ID NO: 165 (designed binder) MSLPAPKNLVVSRVTEDSARLSWTAPDAAFDSFYIAYAEPRPDGEAILLEVPGSERSYDLAGLKPGTEYSVLIHGVKGGLLSSPLGAEFTT
259

Need Cyno apical domain:HSA of CD71-binding FN3 domain of SEQ ID NO: 198 (designed binder) MSLPAPKNLVVSRVTEDSARLSWTAPDAAFDSFLIGYTEYSVYGEAIVLTVPGSERSYDLTGLKPGTEYTVWIMGVKGGIKSTPLSAISTT , thanks.
116

What measured Cyno apical domain:HSA goes with CD71-binding FN3 domain of SEQ ID NO: 146 (designed binder) MSLPAPKNLVVSRVTEDSARLSWTAPDAAFDSFDIGYFENTYEGEAIVLTVPGSERSYDLTGLKPGTEYVVWIGGVKGGSYSSPLSAIFTT ?
128
